System: OVCAR-3 ovarian
Test: NCI tumour cell line growth inhibition, 48 h
attributeMeasured: TGI

Example entries and their recorded answers appear below.
compound: CN/N=C(/CCN1CCCC1)CC(c1ccccc1)c1c(O)c2ccccc2oc1=O (stereo not drawn)
TGI: > 100 µM
--
compound: CSC1=N/C(=C\c2ccc(C)cc2)C(=O)N1
TGI: > 100 µM
--
compound: CC(=O)OC1CC(O)C23COC(O)C1(C)C2CC(O)C1(C)C3C(=O)C(O)C2(C)C(c3ccoc3)CC3OC321 (stereo not drawn)
TGI: > 100 µM
--
compound: CCOc1cccc(C=Nc2ccccc2SSc2ccccc2N=Cc2cccc(OCC)c2O)c1O
TGI: 8.16 µM
--
compound: COC(=O)c1ccccc1/C=C1\Cc2c(C)c3c(c(C)c2C1=O)CCC3
TGI: > 100 µM
--
compound: CCCCN=C(N)c1ccc(OCCSCCOc2ccc(C(N)=NCCCC)cc2)cc1
TGI: > 100 µM

## Input Quick check: TGI on OVCAR-3 ovarian, item CC(=O)OC1C=C(C=O)C(O)(C=O)C2(C)CCCC(C)(C)C12 (stereo not drawn) ?
## Output 2.15 µM

---

System: UO-31 renal
Assay: NCI tumour cell line growth inhibition, 48 h
Property: TGI; scope: individual molecules

## Input For the molecule COc1cc(C2C3=C(COC3=O)OC(C)(C)Oc3cc4c(cc32)OCO4)cc(OC)c1O (configuration not stated) , what TGI is on record?
## Output > 100 µM

## Input Would you mind telling me what TGI value was observed for "COc1nn(Cc2ccccn2)c2ccc([N+](=O)[O-])cc12" ?
## Output > 100 µM

## Input Return reported TGI; argument: "O=C1c2ccccc2-c2nnc(-c3ccc([N+](=O)[O-])cc3)cc21"
## Output > 10 µM

## Input Give the measured TGI of COc1ccc(C2C(C(=O)O)=C(CO)Oc3cc4c(cc32)OCO4)cc1 (configuration not stated) .
## Output > 100 µM

## Input Requested read-out: TGI. Entry: NC(CC(=O)OCc1ccccc1)C(=O)OCc1ccccc1 (configuration not stated)
## Output > 100 µM

## Input What TGI value was documented for this molecule, Cc1[nH]c(=O)[nH]c(=O)c1/C=C/C(=O)NC(CO)CC(C)C (configuration not stated) ?
## Output > 375 µM

## Input // query TGI value for entry OCC1OC(NC(=S)NCCC(F)(F)C(F)(F)C(F)(F)C(F)(F)C(F)(F)C(F)(F)F)C(O)C(O)C1O (configuration not stated)
## Output > 100 µM

## Input What TGI value was documented for this molecule, "Cc1ccc2nc3c(C(=O)NCCN(C)C)cccc3nc2c1" ?
## Output > 54.8 µM

## Input What TGI value was documented for this molecule, "CCCN(CCc1ccc(-c2ccccc2)cc1)CCc1ccc2n[nH]nc2c1" ?
## Output 22.4 µM

---

Test system: HOP-92 NSCLC
Assay: NCI tumour cell line growth inhibition, 48 h
Entries annotated with measured GI50

Some compounds with recorded GI50:
compound: NC(N)=NCCCn1c2c(c3ccccc3c1=O)C(=O)c1ccccc1-2
testedSystem: HOP-92 NSCLC
experimentalResult: 3.2 µM
//
compound: COc1cc(OC)c(/C=C/C(=O)c2c(OC)cccc2OC)c(OC)c1
testedSystem: HOP-92 NSCLC
experimentalResult: 0.222 µM
//
compound: Cc1cn2c(/C=C3/C(=O)N(C)c4ccccc43)c(C)nc2s1
testedSystem: HOP-92 NSCLC
experimentalResult: 31.9 µM

## Input Recall the recorded GI50 for CC1CN1CC(O)C(O)CN1CC1C (centres undefined) with HOP-92 NSCLC and state it.
## Output 6.12 µM

## Input What GI50 appears in the records for this compound with HOP-92 NSCLC? "CCOC(=O)c1cc(/C(=N\O)c2cc(OC)c(OC)c(OC)c2)n2cc(C)cc(C)c12"
## Output 2.26 µM
